Listed below: Half-life values for each entry.
- TARGET: PDEδ (Homo sapiens, UniProt O43924)
- Construct: made in house; host or cells: E. coli BL21(DE3)
- EXPERIMENT: FP-based competition binding assay using excess deltarasin
- RECORDED_CONDITIONS: retention in PDEδ on displacement by excess deltarasin; 0.5 µM PD; mean ± SD of three independent experiments

MOLECULE	Half-life / min
Cc1ccc(-c2nc3ccccc3c3cc4ccccn4c23)cc1 [PD3, 6-(p-tolyl)indolizino[3,2-c]quinoline]	41
COc1ccc(-c2nc3ccccc3c3cc4ccccn4c23)cc1 [PD5]	20
c1ccc2cc(-c3nc4ccccc4c4cc5ccccn5c34)ccc2c1 [PD8]	35
c1ccc2c(-c3nc4ccccc4c4cc5ccccn5c34)cccc2c1 [PD7]	14
c1ccc(-c2nc3ccccc3c3cc4ccccn4c23)cc1 [PD4]	31
Brc1ccc(-c2nc3ccccc3c3cc4ccccn4c23)cc1 [PD1]	36
c1csc(-c2nc3ccccc3c3cc4ccccn4c23)c1 [PD25]	26
COc1ccc(-c2nc3ccccc3c3cc4ccccn4c23)cc1OC [PD6]	19

====

- TARGET: PDEδ (Homo sapiens, UniProt O43924)
- Construct: made in house; host or cells: E. coli BL21(DE3)
- EXPERIMENT: Fluorescence polarisation (FP)-based binding assay
- RECORDED_CONDITIONS: 0.5 µM PD titrated with PDEδ, PBS pH 7.2; mean ± SD of three independent experiments; read-out: Kd value
Response field label takes true (1) when Kd is strictly below 500 nM and false (0) in all other cases.

QUERY_SMILES	GROUP_LABEL
c1ccc2cc(-c3nc4ccccc4c4cc5ccccn5c34)ccc2c1	false (0)
COc1ccc(-c2nc3ccccc3c3cc4ccccn4c23)cc1	false (0)
c1csc(-c2nc3ccccc3c3cc4ccccn4c23)c1	true (1)
c1ccc2c(-c3nc4ccccc4c4cc5ccccn5c34)cccc2c1	false (0)

====

- TARGET: PDEδ (Homo sapiens, UniProt O43924)
- Construct: made in house; host or cells: E. coli BL21(DE3)
- EXPERIMENT: Fluorescence polarisation (FP)-based binding assay
- RECORDED_CONDITIONS: representative binding curve, Figure 3(A) inset; read-out: Best-fit values Kd

MOLECULE	TARGET	Kd
Cc1ccc(-c2nc3ccccc3c3cc4ccccn4c23)cc1 [PD3, 6-(p-tolyl)indolizino[3,2-c]quinoline]	PDEδ (Homo sapiens, UniProt O43924)	499 nM

====

- TARGET: PDEδ (Homo sapiens)
- Construct: made in house; host or cells: E. coli BL21(DE3)
- EXPERIMENT: Fluorescence polarisation (FP)-based binding assay
- RECORDED_CONDITIONS: 0.5 µM PD titrated with PDEδ, PBS pH 7.2; mean ± SD of three independent experiments; read-out: Kd value
- Experimental: To evaluate the binding affinities of PDs to PDEδ, we also carried out a fluorescence polarisation (FP)-based binding assay after incubation of PDs with PDEδ. […] Figure 3. Binding affinities of PDs measured by fluorescence polarisation. […] The FP value was measured in PBS buffer (pH 7.2) containing 8 concentrations (0, 0.5, 1, 2, 4, 8, 16 and 32 μM) of PDEδ mixed with 0.5 μM PDs. […]
Recorded measurements of Kd, one per entry
VALUE_TYPE: Kd

COMPOUND	TEST_VALUE
c1ccc(-c2nc3ccccc3c3cc4ccccn4c23)cc1 [PD4]	505 nM
COc1ccc(-c2nc3ccccc3c3cc4ccccn4c23)cc1OC [PD6]	1280 nM
Brc1ccc(-c2nc3ccccc3c3cc4ccccn4c23)cc1 [PD1]	284 nM

Each recorded value in this set is attributed to paper PMC9225715.
